subject.of.test: wild-type EGFR (Homo sapiens)
Sequence (P00533 25-1210): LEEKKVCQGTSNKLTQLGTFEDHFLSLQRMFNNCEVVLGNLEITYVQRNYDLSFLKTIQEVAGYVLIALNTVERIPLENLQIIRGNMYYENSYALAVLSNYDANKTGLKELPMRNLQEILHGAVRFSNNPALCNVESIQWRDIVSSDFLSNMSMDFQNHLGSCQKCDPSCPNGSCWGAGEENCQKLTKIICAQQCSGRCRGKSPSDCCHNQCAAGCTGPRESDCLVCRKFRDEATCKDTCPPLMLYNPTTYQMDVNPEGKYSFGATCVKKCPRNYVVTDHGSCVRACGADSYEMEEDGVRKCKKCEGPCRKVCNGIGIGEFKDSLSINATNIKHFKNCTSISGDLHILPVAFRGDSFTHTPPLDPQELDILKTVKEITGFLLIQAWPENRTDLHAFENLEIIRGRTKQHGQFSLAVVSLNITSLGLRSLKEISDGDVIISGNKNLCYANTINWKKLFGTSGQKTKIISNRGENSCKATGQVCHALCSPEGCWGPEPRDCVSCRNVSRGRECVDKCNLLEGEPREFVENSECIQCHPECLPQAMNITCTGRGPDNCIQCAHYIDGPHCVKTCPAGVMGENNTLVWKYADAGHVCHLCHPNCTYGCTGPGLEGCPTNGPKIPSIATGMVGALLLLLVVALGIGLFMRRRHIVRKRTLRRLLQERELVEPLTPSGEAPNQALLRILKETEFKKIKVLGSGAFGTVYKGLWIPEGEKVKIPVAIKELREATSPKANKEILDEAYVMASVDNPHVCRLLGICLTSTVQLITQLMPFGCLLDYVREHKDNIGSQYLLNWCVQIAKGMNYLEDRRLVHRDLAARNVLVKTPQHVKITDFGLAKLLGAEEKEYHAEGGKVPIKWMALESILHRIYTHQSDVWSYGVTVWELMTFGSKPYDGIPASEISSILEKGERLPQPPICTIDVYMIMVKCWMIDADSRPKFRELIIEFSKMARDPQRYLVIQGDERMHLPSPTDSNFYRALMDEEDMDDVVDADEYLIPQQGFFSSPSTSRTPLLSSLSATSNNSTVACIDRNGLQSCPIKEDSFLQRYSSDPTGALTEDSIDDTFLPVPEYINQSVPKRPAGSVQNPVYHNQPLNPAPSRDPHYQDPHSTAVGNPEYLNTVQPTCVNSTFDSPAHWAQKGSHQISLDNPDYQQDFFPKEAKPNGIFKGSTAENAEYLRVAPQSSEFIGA
assay.overview: EGFR inhibition assay (luminescence kinase kit, Kinase-Glo Max)
conditions.used: recombinant wild-type EGFR, 30 °C, 40 min
pIC50: −log10 of the molar value.
parameter.measured: pIC50

> print(dat)
                              smiles.record  parameter.measured  readout.number
1  COC(=O)[C@H](Cc1ccccc1)Nc1c(C#N)c(N)nc2cc(Cl)ccc12               pIC50            7.16
2  COC(=O)[C@H](Cc1ccccc1)Nc1c(C#N)c(N)nc2ccc(Cl)cc12               pIC50            7.24
